# ASSAY_SYSTEM: T1, recombinant human IL-13 (human, UniProt P35225 35-146)
# T1 construct: also called rh-IL-13; hIL-13
# T1 sequence (P35225 35-146 limits assumed): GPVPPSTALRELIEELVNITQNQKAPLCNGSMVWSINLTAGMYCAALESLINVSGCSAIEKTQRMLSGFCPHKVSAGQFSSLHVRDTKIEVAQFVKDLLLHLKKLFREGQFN
# ASSAY_PROTOCOL: SPR

BINDER	UOM	koff
BDG38.076 (antibody, V domains shown, IgG1) VH: QMQLVESGGGVVQPGRSLRLSCAASGFAFRTYGMHWVRQAPGKGLEWVAVIWDDGSATHYADSVKGRFTITRDNSKNTLNLQMNSLRAEDTAVYYCVRAPQWYLTAEAFDLWGQGTMVTVSS VL: SYVLTQPPSVSVAPGETASITCGGNMIGGYLVHWYQQKPGQAPLLVIYDDVDRPARIPERFSGSNSGNTATLTISRVEAGDEADYYCQVWDHDTNHMVFGGGTKLTVL	s⁻¹	0.000231
BDG38.094 (antibody, V domains shown, IgG1) VH: QMQLVESGGGVVQPGRSLRLSCAASGFAFRTYGMHWVRQAPGKGLEWVAVIWDDGSNTHYADSVKGRFTITRDNSKNTLNLQMNSLRAEDTAVYYCVRAPQWYLTAEAFDLWGQGTMVTVSS VL: SYVLTQPPSVSVAPGETASITCGGNLIGAYLVHWYQQKPGQAPLLVIYDDVDRPARIPERFSGSNSGNTATLTISRVEAGDEADYYCQVWDHNSNHMVFGGGTKLTVL	s⁻¹	9.36e-05
BDG38.106 (antibody, V domains shown, IgG1) VH: QMQLVESGGGVVQPGRSLTLSCAASGFEFRTYGMHWVRQAPGKGLEWVAVIWDDGSNTVYADSVKGRFTITRDNSKNTLNLQMNSLRVEDTAVYYCVRAPQWYLTAEAFDLWGQGTMVTVSS VL: SYILTQPPSVSVAPGQTATITCGGNLIGSRLVHWYQQKPGQAPVLVIYDDSDRPSRIPERFSGSNIGNTATLTIEDVEEGDEADYYCQVWDHYSDHMVFGGGTKLTVL	s⁻¹	0.000205
BDG38.107 (antibody, V domains shown, IgG1) VH: QMQLVESGGGVVQPGRSLTLSCAASGFEFRTYGMHWVRQAPGKGLEWVGVIWYDGSNTHYADSVKGRFTITRDNSKNTLNLQMNSLRAEDTAVYYCVRAPQWYLTAEAFDLWGQGTMVTVSS VL: SYILTQPPSVSVAPGQTATITCGGNLIGARLVHWYQQKPGQAPVLVIYDDSDRPSRIPERFSGSNIGNTATLTIERVEEGDEADYYCQVWDYSSDSYVFGGGTKLTVL	s⁻¹	2.02e-05
BDG38.098 (antibody, V domains shown, IgG1) VH: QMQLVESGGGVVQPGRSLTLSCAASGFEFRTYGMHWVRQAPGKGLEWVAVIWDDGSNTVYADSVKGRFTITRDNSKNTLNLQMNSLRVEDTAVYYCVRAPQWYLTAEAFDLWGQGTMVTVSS VL: SYVLTQPPSVSVAPGQTATITCGGNLIGARLVHWYQQKPGQAPVLVIYDDSDRPSRIPERFSGSNIGNTATLTISRVEAGDEADYYCQVWDYSSDSMVFGGGTKLTVL	s⁻¹	0.000138
BDG38.092 (antibody, V domains shown, IgG1) VH: QMQLVESGGGVVQPGRSLTLSCAASGFEFRTYGMHWVRQAPGKGLEWLAVIWDDGSNTHYADSVKGRFTITRDNSKNTLNLQMNSLRVEDTAVYYCVRAPQWYLTAEAFDLWGQGTMVTVSS VL: SYVLTQPPSVSVAPGETATITCGGNLIGARLVHWYQQKPGQAPVLVIYDDSDRPSRIPERFSGSNIGNTATLTISDVEEGDEADYYCQVWDYYSDHMVFGGGTKLTVL	s⁻¹	5.37e-05

Where do the numbers come from? From patent US20240059769A1.
